Every entry's value here was drawn from the Deep4Chem optical property database.

# procedure.details: solvent given as SMILES
# run.parameters: in CCCCCCC
Record form. Attribute: absorption maximum. Fill in for each entry.
All answers are understood in nm, so give the number only.

Q: For the compound shown here, C(=C\c1ccncn1)/c1ccc(N(c2ccccc2)c2ccccc2)cc1 , give the reported absorption maximum.
Ans: 392

Q: Another compound to check: c1cc2c3c(cccc3c1)-c1c-2ccc2ccc3ccccc3c12
Ans: 408

Q: Another compound to check: C(=C\c1cnc2ccccc2n1)/c1ccc(N2CCCCC2)cc1
Ans: 402

---

# procedure.details: solvent given as SMILES
# run.parameters: in CN(C)C=O
parameter: absorption maximum

Q: For the compound shown here, CCn1c2ccccc2c2cc(C#Cc3cc(C#Cc4ccc5c(c4)c4ccccc4n5CC)nc(OC)n3)ccc21 , give the reported absorption maximum.
Ans: 392 nm

Q: Another compound to check: O=C(N/N=C/c1ccccc1O)c1ccccc1
Ans: 397 nm

Q: Another compound to check: CCN(CC)c1ccc2cc(-c3cc(SC)c(C#N)c(=O)o3)c(=O)oc2c1
Ans: 521 nm

Q: Another compound to check: c1ccc(C2CCN3COc4c5ccccc5c5c6c7c(c2c3c46)C(c2ccccc2)CCN7CO5)cc1 (stereo not given)
Ans: 407 nm

Q: Another compound to check: CCCCN1\C(=C/C=C/C=C/C2=[N+](CCCC)c3ccc4cc(Br)ccc4c3C2(C)C)C(C)(C)c2c1ccc1cc(Br)ccc21
Ans: 689 nm

---

# procedure.details: solvent given as SMILES
# run.parameters: in CN(C)C=O
Record form. Attribute: absorption maximum. Fill in for each entry.
All answers are understood in nm, so give the number only.

Q: For the compound shown here, O=C([O-])c1c2ccccc2c(C(=O)[O-])c2ccccc12 , give the reported absorption maximum.
Ans: 400

Q: Another compound to check: CCCCC[n+]1ccc(/C=C/c2ccc(N(C)C)c3ccccc23)c2ccccc21
Ans: 501

Q: Another compound to check: O=C(O)c1ccc(C(=O)O)c2cc3ccccc3cc12
Ans: 390

---

Record form. Attribute: absorption maximum. Fill in for each entry.
# procedure.details: solvent given as SMILES
# run.parameters: in ClC(Cl)Cl
All answers are understood in nm, so give the number only.

Q: For the compound shown here, Cc1cc(O)c(C(C)C)cc1/N=C/c1ccc([N+](=O)[O-])cc1 , give the reported absorption maximum.
Ans: 398

Q: Another compound to check: CC1=CC(C)=[N+]2C1=C(c1ccc(I)cc1)c1c(C)cc(C)n1[B-]2(Oc1ccccc1)Oc1ccccc1
Ans: 506

Q: Another compound to check: CCCCCCCCCCCCOc1cc2c3cc(OCCCCCCCCCCCC)c(OCCCCCCCCCCCC)cc3c3c(cc(OCCCCCCCCCCCC)c4nc5cc(C#Cc6ccc(OCCCC)cc6)c(C#Cc6ccc(OCCCC)cc6)cc5nc43)c2cc1OCCCCCCCCCCCC
Ans: 485

---

# procedure.details: solvent given as SMILES
# run.parameters: in ClCCl
Could you please mark Satisfied for values of absorption maximum below 500 nm and Not satisfied for values at or above it?

Q: In plain terms, does CN(CCO)c1ccc(/C=C/C2=C(C#N)C(C(C#N)C#N)OC2(C)C)cc1 (configuration not stated) come in under 500 nm for absorption maximum?
Ans: Not satisfied

Q: Another molecule to check: CCC1(CC)c2ccccc2-c2ccc(C#Cc3ccc4ccc5cccc6ccc3c4c56)cc21
Ans: Satisfied

Q: Another molecule to check: COc1ccc(C#Cc2nc3ccccc3nc2-c2ccn(-c3ccccc3)c2)cc1
Ans: Satisfied

Q: Another molecule to check: CCC1=C(C)C2=C(c3c4ccccc4c(C)c4ccccc34)c3c(C)c(CC)c(C)n3[B-](F)(F)[N+]2=C1C
Ans: Not satisfied

Q: Another molecule to check: Cc1cc(-c2ccccc2)nc2c1ccc1nc(-c3ccccc3)cn12
Ans: Satisfied

Q: Another molecule to check: CC(C)(C)c1ccc2c(c1)c1cc(C(C)(C)C)ccc1n2-c1ccc(-c2nc(-c3ccc(-n4c5ccc(C(C)(C)C)cc5c5cc(C(C)(C)C)ccc54)cc3)nc(-c3ccc(P(=O)(c4ccccc4)c4ccccc4)cc3)n2)cc1
Ans: Satisfied

Q: Another molecule to check: CCCCCCCCN1c2ccccc2Sc2cc(/C=C/c3ccc(N(c4ccc(/C=C/c5ccc6c(c5)Sc5ccccc5N6CCCCCCCC)cc4)c4ccc(/C=C/c5ccc(/C=C/c6ccc(N(c7ccc(/C=C/c8ccc(N(c9ccccc9)c9ccccc9)cc8)cc7)c7ccc(/C=C/c8ccc(N(c9ccccc9)c9ccccc9)cc8)cc7)cc6)c6nsnc56)cc4)cc3)ccc21
Ans: Not satisfied

Q: Another molecule to check: O=P1(c2ccccc2)c2cccc3c4ccccc4c4ccc1n4c23 (configuration not stated)
Ans: Satisfied

Q: Another molecule to check: O=c1c2ccccc2nc2ccc(-c3ccc(N(c4ccccc4)c4ccccc4)cc3)cn12
Ans: Satisfied

Q: Another molecule to check: O=C1c2cc3ccccc3cc2C2=Nc3cccc[n+]3[B-](F)(F)N12
Ans: Satisfied

Q: Another molecule to check: F[B-]1(F)n2c(cc3c4ccccc4c4ccccc4c32)-c2ccc3ccccc3[n+]21
Ans: Satisfied

Q: Another molecule to check: [O-][n+]1c(/C=C/c2ccccc2)nc(Nc2ccccc2)c2c1CCCC2
Ans: Satisfied

Q: Another molecule to check: CC(C)(C)c1ccc2c(c1)c1cc(C(C)(C)C)ccc1n2-c1ccc(N(c2ccc(-c3ccc(-c4ccc(-c5ccc(-c6ccc(N(c7ccc(-n8c9ccc(C(C)(C)C)cc9c9cc(C(C)(C)C)ccc98)cc7)c7ccc(-n8c9ccc(C(C)(C)C)cc9c9cc(C(C)(C)C)ccc98)cc7)cc6)cc5)c5nsnc45)cc3)cc2)c2ccc(-n3c4ccc(C(C)(C)C)cc4c4cc(C(C)(C)C)ccc43)cc2)cc1
Ans: Satisfied

Q: Another molecule to check: CCC1(CC)c2cc(C=O)ccc2-c2ccc(N(C)C)cc21
Ans: Satisfied
